Measured z-score accompanies every entry in the list below.
- assayed-system: Metabotropic glutamate receptor 8 (Rattus norvegicus) (UniProt P70579)
- Sequence (P70579 whole entry, looked up): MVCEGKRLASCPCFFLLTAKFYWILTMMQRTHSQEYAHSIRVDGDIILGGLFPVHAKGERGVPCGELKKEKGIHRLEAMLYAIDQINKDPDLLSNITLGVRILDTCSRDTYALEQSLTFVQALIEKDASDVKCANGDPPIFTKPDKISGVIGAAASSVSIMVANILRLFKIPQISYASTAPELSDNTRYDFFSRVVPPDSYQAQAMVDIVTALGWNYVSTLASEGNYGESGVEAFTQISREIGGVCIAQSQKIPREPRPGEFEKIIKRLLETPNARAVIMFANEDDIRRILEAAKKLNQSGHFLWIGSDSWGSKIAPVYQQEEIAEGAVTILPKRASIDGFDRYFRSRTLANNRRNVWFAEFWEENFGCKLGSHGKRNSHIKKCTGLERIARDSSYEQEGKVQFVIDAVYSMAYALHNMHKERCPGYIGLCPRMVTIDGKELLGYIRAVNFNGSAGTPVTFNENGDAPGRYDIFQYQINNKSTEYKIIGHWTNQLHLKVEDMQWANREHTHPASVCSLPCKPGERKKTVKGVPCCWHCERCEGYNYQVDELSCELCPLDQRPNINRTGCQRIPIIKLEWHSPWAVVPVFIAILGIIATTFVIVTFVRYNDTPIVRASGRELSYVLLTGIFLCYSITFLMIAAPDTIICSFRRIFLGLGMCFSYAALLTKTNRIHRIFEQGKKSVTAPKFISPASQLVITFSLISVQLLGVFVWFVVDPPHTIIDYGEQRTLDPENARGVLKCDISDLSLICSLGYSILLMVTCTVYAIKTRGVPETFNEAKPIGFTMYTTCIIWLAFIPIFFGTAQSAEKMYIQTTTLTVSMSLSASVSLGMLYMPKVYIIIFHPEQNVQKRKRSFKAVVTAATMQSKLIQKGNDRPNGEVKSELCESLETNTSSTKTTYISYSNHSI
- protocol: mGluR8 Gi/Go-coupled signaling modulation – cell-based, rat, thallium flux, HTS, primary screen (AID 488969)
- experimental-context: HEK293 rat mGluR8, GIRK thallium flux, FluoZin2; at 10 µM; stronger effect = higher value; submaximal glutamate (EC20) added with thallium
Whole data set: some 110,000 compounds, median “z-score” near -0.1, cut for the highest 2% near 2. For the sample, the highest values were picked, then their nearest neighbours and some compounds at random.
Please reply with the number alone, leaving off any unit.

| molecule | z-score |
| --- | --- |
| Cc1cc(C(=O)NC(C)c2ccc3c(c2)OCO3)cs1 (stereo unspecified) | 0.0632 |
| CC(=O)Nc1ccccc1Nc1cc(C#N)c(C#N)cc1[N+](=O)[O-] | -0.00232 |
| O=C(CN1CCN(C(c2ccccc2)c2ccccc2)CC1)N1CCOCC1 | -0.28 |
| CCOc1ccc(N2C(=O)/C(=C/c3cc(OC)c(OC)c(OC)c3)N(CC(=O)OC)C2=S)cc1 | 14.1 |
| COc1ccc2nc(N=Nc3ccc(O)c4ccccc34)sc2c1 | 5.85 |

query: Give the value of z-score reported for the following: `CCOc1ccc(N2C(=O)/C(=C/c3cccs3)N(CC(=O)OC)C2=S)cc1`
result: -0.17

query: Give the value of z-score reported for the following: `COc1ccc2nc(N=Nc3ccc(N(C)C)cc3)sc2c1`
result: 0.141

query: Give the value of z-score reported for the following: `CC(=O)c1cnc(N(C)C)s1`
result: 0.141

query: Give the value of z-score reported for the following: `Cc1cc(=O)oc2cc(OCC(=O)Nc3nnc(CC(C)C)s3)ccc12`
result: -0.0633

query: Give the value of z-score reported for the following: `CCOc1ccc(/C=C2/C(=O)N(c3ccc(OC)cc3)C(=S)N2CC(=O)OC)cc1OCC`
result: 0.273

query: Give the value of z-score reported for the following: `CCOC(=O)N/N=C(C)/C=C/c1ccco1`
result: 0.31

====

Measured z-score accompanies every entry in the list below.
- assayed-system: Metabotropic glutamate receptor 8 (Rattus norvegicus) (UniProt P70579)
- protocol: mGluR8 Gi/Go-coupled signaling modulation – cell-based, rat, thallium flux, HTS, primary screen (AID 488969)
- experimental-context: HEK293 rat mGluR8, GIRK thallium flux, FluoZin2; at 10 µM; stronger effect = higher value; submaximal glutamate (EC20) added with thallium
Over roughly 110,000 compounds, “z-score” has its median near -0.1; the highest 2% begin near 2. What follows is part of a selection rich in the highest values, with near analogues and random picks from the rest.
Please reply with the number alone, leaving off any unit.

| compound | assayed-system | z-score |
| --- | --- | --- |
| CCn1c(-c2ccc(-c3ccccc3)cc2)c[nH]c1=S | Metabotropic glutamate receptor 8 (Rattus norvegicus) (UniProt P70579) | 3.86 |
| Cc1cccc(-n2cc[nH]c2=S)c1 | Metabotropic glutamate receptor 8 (Rattus norvegicus) (UniProt P70579) | 0.0616 |
| O=C(NCc1ccco1)C(Cc1ccccc1)NS(=O)(=O)c1cccc2nsnc12 (stereo unspecified) | Metabotropic glutamate receptor 8 (Rattus norvegicus) (UniProt P70579) | -0.0409 |
| CCn1c(-c2ccccc2)c[nH]c1=S | Metabotropic glutamate receptor 8 (Rattus norvegicus) (UniProt P70579) | 0.254 |

query: Give the value of z-score reported for the following: `COc1ccc(CCNC(=O)c2ccc(CN3CCC(Cc4ccccc4)CC3)cc2)cc1`
result: -0.304

query: Give the value of z-score reported for the following: `C=CCn1c(-c2ccccc2)c[nH]c1=S`
result: 0.229

====

- assayed-system: Metabotropic glutamate receptor 8 (Rattus norvegicus)
- protocol: mGluR8 Gi/Go-coupled signaling modulation – cell-based, rat, thallium flux, HTS, primary screen (AID 488969)
- experimental-context: HEK293 rat mGluR8, GIRK thallium flux, FluoZin2; at 10 µM; stronger effect = higher value; submaximal glutamate (EC20) added with thallium
Whole data set: some 110,000 compounds, median “z-score” near -0.1, cut for the highest 2% near 2. For the sample, the highest values were picked, then their nearest neighbours and some compounds at random.
Answer 0 if z-score is under -0.1, and 1 if it is -0.1 or more.

Answered cases to consult:
| compound | label |
| --- | --- |
| O=C(/C=C(\O)c1ccc(Cl)cc1)C(=O)NNC(=O)C(O)(c1ccccc1)c1ccccc1 | 0 |
| CN(Cc1ccccc1)C(=O)CN(C1CCCCC1)S(C)(=O)=O | 1 |
| COc1cnc(-c2ccccc2)nc1Oc1cccc(C)c1C | 1 |
| Cc1ccc(C(=O)NCCSc2ccc(Cl)cc2)cc1S(=O)(=O)Nc1ccccc1 | 0 |
| Cc1cc(=O)n2cc(-c3ccccc3)nc2[nH]1 | 0 |

query: Check this compound for z-score at or above -0.1: COCCCNC(=O)C1CCCCN1S(=O)(=O)c1ccc(F)cc1 (stereo unspecified)
result: 1

====

- assayed-system: Metabotropic glutamate receptor 8 (Rattus norvegicus) (UniProt P70579)
- protocol: mGluR8 Gi/Go-coupled signaling modulation – cell-based, rat, thallium flux, HTS, primary screen (AID 488969)
- experimental-context: HEK293 rat mGluR8, GIRK (G protein-gated inwardly rectifying potassium channel) thallium flux, FluoZin2; at 10 µM; stronger effect = higher value; submaximal glutamate (EC20) added with thallium
In all, about 110,000 compounds were measured (“z-score”: median about -0.1, highest 2% from about 2 on). The entries come from a sample that favours the highest values as a whole.
Answer False if z-score is under 0.4, and True if it is 0.4 or more.

| compound | assayed-system | label |
| --- | --- | --- |
| N/C(=N\OC(=O)CCc1ccccc1)c1ccc(Br)cc1 | Metabotropic glutamate receptor 8 (Rattus norvegicus) (UniProt P70579) | False |
| COc1ccc(C(=O)CSc2nc3ccccc3n2CC(=O)NC(C)(C)C)cc1 | Metabotropic glutamate receptor 8 (Rattus norvegicus) (UniProt P70579) | False |
| Cc1cccc(NC(=O)COC(=O)c2ccccc2-c2nc3ccccc3s2)c1C | Metabotropic glutamate receptor 8 (Rattus norvegicus) (UniProt P70579) | False |
| O=C(NCc1nc2ccccc2[nH]1)c1ccc(Cl)c(S(=O)(=O)N2CCCC2)c1 | Metabotropic glutamate receptor 8 (Rattus norvegicus) (UniProt P70579) | False |
| CC(=O)C1=C(c2ccccc2)OC(N)=C(C#N)C1c1ccc(O)cc1 (stereo not given) | Metabotropic glutamate receptor 8 (Rattus norvegicus) (UniProt P70579) | False |
| CC(C)[C@H](NC(=O)OC(C)(C)C)c1nnc(SCC(=O)Nc2ccc(Br)cc2)o1 | Metabotropic glutamate receptor 8 (Rattus norvegicus) (UniProt P70579) | False |
| CC1CCc2c(sc(NC(=O)CN3CCN(C(=O)c4ccco4)CC3)c2C#N)C1 (stereo not given) | Metabotropic glutamate receptor 8 (Rattus norvegicus) (UniProt P70579) | False |
| COc1ccc(CCCC(=O)NC2CCCCC2)cc1 | Metabotropic glutamate receptor 8 (Rattus norvegicus) (UniProt P70579) | False |
| Cn1c(=O)c(C(=O)Nc2cccnc2)c(O)c2ccccc21 | Metabotropic glutamate receptor 8 (Rattus norvegicus) (UniProt P70579) | True |
| COC(=O)/C=C/C(=O)N1CCN(c2ccccc2)CC1 | Metabotropic glutamate receptor 8 (Rattus norvegicus) (UniProt P70579) | False |

query: Check this compound for z-score at or above 0.4: `Oc1ccc(-c2n[nH]c(=S)n2Cc2ccco2)cc1`
result: False

query: Check this compound for z-score at or above 0.4: `COc1ccc(S(=O)(=O)NCCCCCC(=O)NCCCN2CCOCC2)cc1`
result: True

query: Check this compound for z-score at or above 0.4: CC1CCc2c(sc(NC(=O)C(=O)NCc3ccco3)c2C#N)C1 (stereo not given)
result: True

query: Check this compound for z-score at or above 0.4: `CC(=O)Nc1ccc(NC(=O)C(F)(F)F)cc1`
result: False

query: Check this compound for z-score at or above 0.4: COc1ccc(/C=C2\NC(=S)N(CC3CCCO3)C2=O)c(OC)c1C (stereo not given)
result: True

query: Check this compound for z-score at or above 0.4: `COCC(=O)Nc1ccc([N+](=O)[O-])cc1C`
result: True

query: Check this compound for z-score at or above 0.4: `Cn1ncc2c(NCc3ccccc3)ncnc21`
result: False

query: Check this compound for z-score at or above 0.4: `CCn1c(-c2cc(C3CC3)nc3ccccc23)n[nH]c1=S`
result: False

query: Check this compound for z-score at or above 0.4: CC1=C(n2nnc3ccccc32)C(c2ccccc2)C(C#N)=C(N)O1 (stereo not given)
result: True

query: Check this compound for z-score at or above 0.4: `Cc1c([N+](=O)[O-])c([N+](=O)[O-])nn1CC(=O)N1CCCCC1`
result: False

query: Check this compound for z-score at or above 0.4: `Cc1oc(/C=N/NC(=O)CN(c2ccccc2Br)S(C)(=O)=O)cc1Br`
result: False
